test: BET inhibitor-based combinations targeting novel dependencies in MECOM-rearranged (r) AML: AML-194 cell line (AID 2202237; also: nearly all actives have a fitted effect of over 40% in size); conditions: AML-194 (MECOM-r AML) viability, CellTiter-Glo, 48 h; series mostly up to 46 µM
Inconclusive results are not listed. Calls of active or inactive are those of the source. Calls follow the shape of the dose curve; as a rule, active = well fitted inhibition curve with a large enough effect; inconclusive = small, poorly fitted or top-dose-only effect; inactive = flat fitted curve, though single readings scatter.
Just give me one of these, please: class 1 (active), class 0 (inactive)

INPUT: Outcome? CC(=O)OCC(CCn1cnc2cnc(N)nc21)COC(C)=O
OUTPUT: class 0

INPUT: Outcome? O=C(O)CCNc1cc(N2CCc3ccccc3CC2)nc(-c2ccccn2)n1
OUTPUT: class 0

INPUT: Outcome? Cc1cc(O)c(-c2ccc([C@@H](C)CN(C)C)cc2)c2c1[nH]c(=O)c1sccc12
OUTPUT: class 1

INPUT: Outcome? CCN(c1cc(C#CCN2CCOCC2)cc(C(=O)NCc2c(C)cc(C)[nH]c2=O)c1C)C1CCC(N(C)CCOC)CC1 (stereo not given)
OUTPUT: class 0

INPUT: Outcome? CN(C(=O)c1ccc(F)cc1C(F)(F)F)C1CCN(c2nnc(-c3ccnn3C)c3ccccc23)CC1
OUTPUT: class 0

====

Assay: BET inhibitor-based combinations targeting novel dependencies in MECOM-rearranged (r) AML: SET-2 cell line (AID 2202231); also: potency is read from the fitted curve at half-maximal effect; nearly all actives have a fitted effect of over 35% in size
Settings: SET-2 AML cells viability, CellTiter-Glo luminescence, 48 h
Procedure: Ecotropic viral insertion site 1 (EVI1) is located on chromosome 3q26.2 as part of the MECOM (MDS and EVI1 complex) locus. […] A collection of 2480 mechanistically annotated dugs (MIPE v5.0) was used to screen four 3q26.2 rearranged AML cell lines and three non-3q26.2 rearranged AML cell lines. […] Cell viability was determined by luminescence based, Cell Titer Glo assay (Promega). […] Luminescence readings were taken using a Viewlux (PerkinElmer) with a 2 s exposure time per plate. […]
Results filed as inconclusive are left out. The source made the active and inactive calls. The call rests on the fitted dose curve; in most records, active means well fitted inhibition curve with a large enough effect; inconclusive means small, poorly fitted or top-dose-only effect; inactive means no such curve, though single readings can be large or run the other way.
Field: Potency. Provide a value for each of the compounds that follow.

Entry O=C(Nc1ncc(-c2cc(C(F)F)nn2-c2c(Cl)cccc2Cl)s1)C1CC1 ; Potency = 1.05 µM (active)

Entry COC(=O)C1=C(C)NC(C)=C(C(=O)OCCCN2CCC(c3ccccc3)(c3ccccc3)CC2)C1c1cccc([N+](=O)[O-])c1 (centres undefined) ; Potency = 18.6 µM (active)

Entry C=CC(=O)Nc1cccc(Sc2nc(Nc3ccc(N4CCN(C)CC4)cc3)ncc2Cl)c1 ; Potency = 11.8 µM (active)

Entry COc1cc(C)c(Sc2cnc(NC(=O)c3ccc(CNC(C)C(C)(C)C)cc3)s2)cc1C(=O)N1CCN(C(C)=O)CC1 (centres undefined) ; Potency = 23.5 µM (active)

Entry CC1(COc2ccc3c(c2)ncn3-c2ccc3cccc(N4CCC(N)CC4)c3n2)COC1 ; Potency = 13.2 µM (active)

Entry Cc1nc(Nc2n[nH]c3c2CN(C(=O)N[C@H](CN(C)C)c2ccccc2)C3(C)C)c2sccc2n1 ; Potency = 1.48 µM (active)

Entry O=C1c2c(O)ccc(O)c2C(=O)c2c(NCCNCCO)ccc(NCCNCCO)c21 ; Potency = 0.742 µM (active)

Entry Cc1ncc(NC(=O)c2ccc(CN3CCN(C)CC3)c(C(F)(F)F)c2)cc1Nc1nccc(-c2cccnc2)n1 ; Potency = 23.5 µM (active)

Entry COc1ccc(C=Cc2cc(OC)c(OC)c(OC)c2)cc1NC(=O)[C@H](N)CO ; Potency = 0.263 µM (active)

Entry CCn1nnc2c(N3CCOCC3)nc(-c3ccc(NC(=O)Nc4ccc(C(=O)N5CCN(C)CC5)cc4)cc3)nc21 ; Potency = 1.86 µM (active)

Entry Nc1nc(Cl)nc2c1ncn2[C@H]1C[C@H](O)[C@@H](CO)O1 ; Potency = 0.263 µM (active)

Entry CCc1ccc(C(=O)Nc2cc(CN3CCN(C)CC3)cc(C(F)(F)F)c2)cc1C#Cc1cnc2ccnn2c1 ; Potency = 14.8 µM (active)

Entry O=C1NC(=O)C(c2cnc3ccccn23)=C1c1cn2c3c(cc(F)cc13)CN(C(=O)N1CCCCC1)CC2 ; Potency = 0.0417 µM (active)

Entry COc1cc2nc(N3CCCN(C)CC3)nc(NC3CCN(Cc4ccccc4)CC3)c2cc1OC ; Potency = 18.6 µM (active)

Entry COc1cc(C(=O)N2CCC(N3CCN(C)CC3)CC2)ccc1Nc1ncc2c(n1)N(C)c1ccccc1C(=O)N2C ; Potency = 6.61 µM (active)

Entry Oc1ccc([C@@H]2Oc3ccc(O)cc3[C@@H]3CCC[C@@H]32)cc1 ; Potency = 18.6 µM (active)

Entry O=C(O)c1ccc(CCCc2ccc(OCCc3ccc(F)cc3)cc2)o1 ; Potency = 20.9 µM (active)

Entry CN1C(=O)c2sccc2N(C)c2nc(Nc3ccc(S(N)(=O)=O)cc3)ncc21 ; Potency = 6.61 µM (active)

Entry NC(=O)c1cccc2cn(-c3ccc([C@@H]4CCCNC4)cc3)nc12 ; Potency = 14.8 µM (active)

Measured values drawn from PubChem BioAssay (NCATS) for this set.
